Data provenance: the supplement of paper PMC7261846

System: Candida albicans SNY425 biofilm
Assay: biofilm OD600 with compound plus antifungal (OD600 (absorbance)); higher = more biofilm remaining
Conditions: assay detail: disruption of 24-h mature biofilm (compound + antifungal for a second 24 h)
Each record here notes measured biofilm OD600.
Would you mind answering with just the numeric figure?

1) CCC[C@@]1(CCc2ccccc2)CC(O)=C([C@H](CC)c2cccc(NS(=O)(=O)c3ccc(C(F)(F)F)cn3)c2)C(=O)O1 [tipranavir] + C[C@@H]1[C@H](O)[C@@H](C)/C=C/C=C/C=C/C=C/C=C/C=C/C=C/[C@H](O[C@@H]2O[C@H](C)[C@@H](O)[C@H](N)[C@@H]2O)C[C@@H]2O[C@](O)(C[C@@H](O)C[C@@H](O)[C@H](O)CC[C@@H](O)C[C@@H](O)CC(=O)O[C@H]1C)C[C@H](O)[C@H]2C(=O)O [amphotericin B] (first compound 12.5 µM)
0.264

query: Look up and state reported biofilm OD600 for O=C[C@@H]1CCCN1C(=O)[C@@H]1CCCN1C(=O)OCc1ccccc1 [Z-Prolyl-prolinal] + C[C@@H]1[C@H](O)[C@@H](C)/C=C/C=C/C=C/C=C/C=C/C=C/C=C/[C@H](O[C@@H]2O[C@H](C)[C@@H](O)[C@H](N)[C@@H]2O)C[C@@H]2O[C@](O)(C[C@@H](O)C[C@@H](O)[C@H](O)CC[C@@H](O)C[C@@H](O)CC(=O)O[C@H]1C)C[C@H](O)[C@H]2C(=O)O [amphotericin B] (first compound 12.5 µM)
result: 0.262

query: Look up and state reported biofilm OD600 for Nc1ccc(CC(CC(=O)O)C(=O)O)cc1 [4-Amino-D, L-benzylsuccinic acid] + OC(Cn1cncn1)(Cn1cncn1)c1ccc(F)cc1F [fluconazole] (first compound 12.5 µM)
result: 0.291
